The measured values listed here are drawn from patent US11098040B2.

Field: Whole Blood Stability % Remaining at 37° C. Mouse. Provide a value for each of the compounds that follow.
test: Whole blood stability, mouse; type: in vitro ADME; settings: 30 min
Report the figure in % without appending any unit label.

Need Whole Blood Stability % Remaining at 37° C. Mouse of CN(C)C(=O)c1ccc([C@@H]2c3sc4ccccc4c3C[C@H](C(=O)N(C)C)N2C(=O)CCl)cc1 [Compound 55a] , thanks. 82.3

Would you kindly share the measured Whole Blood Stability % Remaining at 37° C. Mouse for CC(=O)Nc1ccc([C@@H]2c3[nH]c4ccccc4c3C[C@H](C(=O)N(C)C)N2C(=O)CCl)cc1 [Compound 71a] ? 76.5

What Whole Blood Stability % Remaining at 37° C. Mouse value was documented for this compound, C[C@H]1Cc2c([nH]c3ccccc23)[C@@H](c2ccc(C(=O)NC34CC(C3)C4)cc2)N1C(=O)CCl [Compound 111] ? 79.2

Given COC(=O)[C@H]1Cc2c([nH]c3ccccc23)[C@@H](c2ccc(C(=O)NCCN3CCOCC3)cc2)N1C(=O)CCl [Example 27a] , state its recorded Whole Blood Stability % Remaining at 37° C. Mouse. 92.5

For the compound COC(=O)[C@H]1Cc2c([nH]c3ccccc23)[C@H](c2ccc(O)cc2)N1C(=O)CCl [Compound 265] , what Whole Blood Stability % Remaining at 37° C. Mouse is on record? 75.5

Return reported Whole Blood Stability % Remaining at 37° C. Mouse; argument: [2H]C([2H])([2H])OC(=O)[C@H]1Cc2c([nH]c3ccccc23)[C@H](c2ccc(C(=O)OC(C)(C)C)cc2)N1C(=O)CCl [CA] 80.8

Which measured Whole Blood Stability % Remaining at 37° C. Mouse value corresponds to CC(C)N(C(=O)[C@H]1Cc2c([nH]c3ccccc23)[C@H](c2ccc(C(=O)N(C)C)cc2)N1C(=O)CCl)C(C)C [Compound 39] ? 73.2

Requested read-out: Whole Blood Stability % Remaining at 37° C. Mouse. Entry: COC(=O)[C@H]1Cc2c([nH]c3ccccc23)[C@H](c2ccc(NC(C)=O)cc2)N1C(=O)CCl [Compound 80] 72.3

Return reported Whole Blood Stability % Remaining at 37° C. Mouse; argument: COC(=O)[C@H]1Cc2c([nH]c3ccccc23)[C@H](c2ccc(C(=O)N(C)C)cc2)N1C(=O)CCl [Compound 8] 53.0

What value of measured Whole Blood Stability % Remaining at 37° C. Mouse is listed for CN(C)C(=O)[C@H]1Cc2c([nH]c3ccccc23)[C@H](c2ccc(S(C)(=O)=O)cc2)N1C(=O)CCl [Compound 59] ? 97.9

Return reported Whole Blood Stability % Remaining at 37° C. Mouse; argument: COC(=O)c1ccc([C@H]2c3sc4ccccc4c3C[C@H](C(=O)OC)N2C(=O)CCl)cc1 [Example 55c] 0.0

Would you kindly share the measured Whole Blood Stability % Remaining at 37° C. Mouse for CN(C)C(=O)c1ccc([C@H]2c3[nH]c4ccccc4c3C[C@H](C(N)=O)N2C(=O)CCl)cc1 [Compound 58] ? 89.9

Any idea what its Whole Blood Stability % Remaining at 37° C. Mouse is? The compound is COC(=O)[C@H]1Cc2c([nH]c3ccccc23)[C@H](C23CC(C(=O)OC)(C2)C3)N1C(=O)CCl [Compound 62] 0.0

// Whole Blood Stability % Remaining at 37° C. Mouse lookup, key: C[C@H]1Cc2c([nH]c3ccc(C#N)cc23)[C@H](c2ccc(N3CCOCC3)cc2)N1C(=O)CCl [Compound 115] 34.2

----------
Provide the recorded IC50 for the entries that follow.
tested on: SJSA-1; experiment: Cell viability assay (CellTiter Glo), osteosarcoma SJSA-1; type: cell-based; settings: Homo sapiens, 96 hours
Record the value in µM, omitting the unit from your answer.

What measured IC50 goes with CN(C)C(=O)[C@H]1Cc2c([nH]c3ccccc23)[C@H](c2ccc(C(=O)OC(C)(C)C)cc2)N1C(=O)CCl [Example 21] ? 0.17

What IC50 value was documented for this compound, COC(=O)[C@H]1Cc2c([nH]c3ccccc23)[C@H](c2ccc(C(=O)NC(C(=O)O)C(C)(C)C)cc2)N1C(=O)CCl (stereo partly drawn) [Example 10] ? 15.3

Give the measured IC50 of CC(C)(C)OC(=O)[C@H]1Cc2c([nH]c3ccccc23)[C@H](c2ccc([N+](=O)[O-])cc2)N1C(=O)CCl [Example 11] . 0.327

----------
test: Whole blood stability, mouse; assay type: in vitro ADME; details: 30 min
Property Name: Whole Blood Stability % Remaining at 37° C. Mouse (%)
Give a bare numeral; the unit % is implied.

Quick one: Whole Blood Stability % Remaining at 37° C. Mouse of COC(=O)c1ccc([C@H]2c3[nH]c4ccc(OC)cc4c3C[C@H](C)N2C(=O)CCl)cc1 ? 89.5

Look at this compound and give its reported Whole Blood Stability % Remaining at 37° C. Mouse. COC(=O)[C@H]1Cc2c([nH]c3ccccc23)[C@@H](c2ccc(OC(=O)C(C)(C)C)cc2)N1C(=O)CCl [Compound 13a] 0.0

Whole Blood Stability % Remaining at 37° C. Mouse lookup needed for COC(=O)[C@H]1Cc2c([nH]c3ccccc23)[C@H](c2ccc(S(=O)(=O)N[C@]34C[C@H]5C[C@H](C[C@H](C5)C3)C4)cc2)N1C(=O)/C=C/CCl , thanks. 85.3

Can you look up the measured Whole Blood Stability % Remaining at 37° C. Mouse of COC[C@H]1Cc2c([nH]c3ccccc23)[C@@H](c2ccc(C(=O)OC(C)(C)C)cc2)N1C(=O)CCl for me? 0.0

Form field: reported Whole Blood Stability % Remaining at 37° C. Mouse of [2H]C([2H])(Cl)C(=O)N1[C@@H](c2ccc(C(=O)OC(C)(C)C)cc2)c2[nH]c3ccccc3c2C[C@@H]1C(=O)OC 65.4

Consider the compound shown here: COC(=O)[C@H]1Cc2c([nH]c3ccccc23)[C@H](c2ccc(C(=O)NCCN3CCOCC3)cc2)N1C(=O)CCl What is its recorded Whole Blood Stability % Remaining at 37° C. Mouse? 78.2

What does the data say about its Whole Blood Stability % Remaining at 37° C. Mouse? Entry: COC(=O)[C@H]1Cc2c([nH]c3ccccc23)[C@H](c2ccc(C(=O)OCC3CCCCC3)cc2)N1C(=O)CCl 0.0

Fill in the blank: the reported Whole Blood Stability % Remaining at 37° C. Mouse of CC(C)(C)OC(=O)c1ccc([C@@H]2c3[nH]c4ccccc4c3C[C@H](CO)N2C(=O)CCl)cc1 [Example 64a] is ____. 8.3

# query: Whole Blood Stability % Remaining at 37° C. Mouse of entry COC(=O)[C@H]1Cc2c([nH]c3ccccc23)[C@H](c2ccc(C(=O)NC(C)(C)C)cc2)N1C(=O)CCl 61.9

Please look up its Whole Blood Stability % Remaining at 37° C. Mouse: CC[C@H]1Cc2c([nH]c3ccccc23)[C@H](c2ccc(C(=O)OC)cc2)N1C(=O)CCl 0.0

Returns the measured Whole Blood Stability % Remaining at 37° C. Mouse for the input compound. Input: C[C@H]1Cc2c([nH]c3ccc(F)cc23)[C@H](c2ccc(N3CCOCC3)cc2)N1C(=O)CCl 59.3

I'd like to know its Whole Blood Stability % Remaining at 37° C. Mouse. The compound in question is C#CCOC(=O)c1ccc([C@@H]2c3[nH]c4ccccc4c3C[C@H](C(=O)OC)N2C(=O)CCl)cc1 0.0

Please report the recorded Whole Blood Stability % Remaining at 37° C. Mouse for COC(=O)c1ccc([C@H]2c3[nH]c4cccc(Br)c4c3C[C@H](C(=O)OC)N2C(=O)CCl)cc1 . 1.5

Quick one: Whole Blood Stability % Remaining at 37° C. Mouse for COC(=O)[C@H]1Cc2c([nH]c3ccccc23)[C@H](c2ccc(C(=O)OC(C)(C)C)cc2)N1C(=O)CCl ? 59.6

----------
experiment: Whole blood stability, mouse; type: in vitro ADME; conditions: 0 min
Property Name: Whole Blood Stability % Remaining at 37° C. Mouse

Consider the compound COC(=O)[C@H]1Cc2c([nH]c3ccccc23)[C@H](c2ccc(C(=O)OCC3CCC3)cc2)N1C(=O)CCl and give its measured Whole Blood Stability % Remaining at 37° C. Mouse. 100.0%

Would you mind telling me what Whole Blood Stability % Remaining at 37° C. Mouse value was observed for CN(C)C(=O)[C@H]1Cc2c([nH]c3ccccc23)[C@H](c2ccc(S(C)(=O)=O)cc2)N1C(=O)CCl ? 100.0%

What value of Whole Blood Stability % Remaining at 37° C. Mouse has been reported for the following compound? COC(=O)c1cccc([C@H]2c3[nH]c4ccccc4c3C[C@H](C(=O)OC)N2C(=O)CCl)c1 100.0%

What Whole Blood Stability % Remaining at 37° C. Mouse value was documented for this compound, COC(=O)[C@H]1Cc2c([nH]c3ccccc23)[C@H](c2ccc(C(=O)NCCN3CCOCC3)cc2)N1C(=O)CCl ? 100.0%

Tell me the measured Whole Blood Stability % Remaining at 37° C. Mouse of COC(=O)[C@H]1Cc2c([nH]c3ccccc23)[C@H](c2ccc(C(=O)O)cc2)N1C(=O)CCl , please. 100.0%

Which value of Whole Blood Stability % Remaining at 37° C. Mouse has been reported for COC(=O)[C@H]1Cc2c([nH]c3ccccc23)[C@H](c2ccc(C(=O)OC(C)(C)C)cc2)N1C(=O)CCl in the records? 100.0%

I have this compound here, COC(=O)c1ccc([C@@H]2c3c(c4ccccc4n3C)C[C@H](C(=O)OC)N2C(=O)CCl)cc1 , and I need its recorded Whole Blood Stability % Remaining at 37° C. Mouse. 100.0%

I have this compound here, COC(=O)c1ccc([C@H]2c3[nH]c4ccccc4c3C[C@H](C(=O)OC)N2C(=O)CCl)cc1 [K601 (RSL3), reference compound] , and I need its recorded Whole Blood Stability % Remaining at 37° C. Mouse. 100.0%

# Whole Blood Stability % Remaining at 37° C. Mouse lookup, item COC(=O)c1ccc([C@H]2c3[nH]c4cc(Br)ccc4c3C[C@H](C(=O)OC)N2C(=O)CCl)cc1 100.0%

Name the reported Whole Blood Stability % Remaining at 37° C. Mouse value associated with the compound COC(=O)c1ccc([C@H]2c3[nH]c4ccccc4c3C[C@H](C(=O)O)N2C(=O)CCl)cc1 100%

Which Whole Blood Stability % Remaining at 37° C. Mouse is listed for COC(=O)[C@H]1Cc2c([nH]c3ccccc23)[C@@H](c2ccc(OC(=O)C(C)(C)C)cc2)N1C(=O)CCl [Compound 13a] ? 100.0%

Whole Blood Stability % Remaining at 37° C. Mouse for COC(=O)C1CCC([C@H]2c3[nH]c4ccccc4c3C[C@H](C(=O)N(C)C)N2C(=O)CCl)CC1 (stereo partly shown) ? 100.0%

Request the reported Whole Blood Stability % Remaining at 37° C. Mouse associated with CN(C)C(=O)[C@H]1Cc2c([nH]c3ccccc23)[C@H](c2ccc(C(=O)NC[Si](C)(C)C)cc2)N1C(=O)CCl 100.0%

I'd like to know its Whole Blood Stability % Remaining at 37° C. Mouse. The compound in question is CN(C)C(=O)c1ccc([C@H]2c3[nH]c4ccccc4c3C[C@H](C(N)=O)N2C(=O)CCl)cc1 100.0%

May I ask what Whole Blood Stability % Remaining at 37° C. Mouse has been recorded for COC(=O)[C@H]1Cc2c([nH]c3ccccc23)[C@H](c2ccc(C(=O)N3CCOCC3)cc2)N1C(=O)CCl ? 100.0%

Would you mind telling me what Whole Blood Stability % Remaining at 37° C. Mouse value was observed for COC(=O)[C@H]1Cc2c([nH]c3ccccc23)[C@H](c2ccc(NC(C)=O)cc2)N1C(=O)CCl ? 100.0%

# Whole Blood Stability % Remaining at 37° C. Mouse lookup, item C[C@H]1Cc2c([nH]c3ccc(C#N)cc23)[C@H](c2ccc(N3CCOCC3)cc2)N1C(=O)CCl 100.0%

Which Whole Blood Stability % Remaining at 37° C. Mouse value belongs to COC(=O)[C@H]1Cc2c([nH]c3ccccc23)[C@H](C23CC(C(=O)OC)(C2)C3)N1C(=O)CCl ? 100.0%

Give its Whole Blood Stability % Remaining at 37° C. Mouse value. Item: COC(=O)[C@H]1Cc2c([nH]c3ccccc23)[C@H](c2ccc(C(=O)OC(C)(C)C)cc2)N1C(=O)/C=C/CCl 100.0%

Endpoint output: Whole Blood Stability % Remaining at 37° C. Mouse of COC(=O)[C@H]1Cc2c([nH]c3ccccc23)[C@H](c2ccc(S(=O)(=O)N[C@]34C[C@H]5C[C@H](C[C@H](C5)C3)C4)cc2)N1C(=O)/C=C/CCl . Value? 100.0%

Which Whole Blood Stability % Remaining at 37° C. Mouse value is on record for CN(C)C(=O)c1ccc([C@@H]2c3sc4ccccc4c3C[C@H](C(=O)N(C)C)N2C(=O)CCl)cc1 [Compound 55a] ? 100.0%

Requested field: Whole Blood Stability % Remaining at 37° C. Mouse. Item: COC(=O)[C@H]1Cc2c([nH]c3ccccc23)[C@H](c2ccc(C(=O)OC(C)(C)C)cc2)N1C(=O)C(C)Cl (stereo partly shown) 100.0%

For the compound COC(=O)[C@H]1Cc2c([nH]c3ccccc23)[C@H](c2ccc(O)cc2)N1C(=O)CCl , what Whole Blood Stability % Remaining at 37° C. Mouse is on record? 100.0%

State the recorded Whole Blood Stability % Remaining at 37° C. Mouse for this entry: COC(=O)[C@H]1Cc2c([nH]c3ccccc23)[C@H](c2ccc(S(=O)(=O)NCC3CC3)cc2)N1C(=O)CCl 100.0%

Query (compound): CC(=O)Nc1ccc([C@H]2c3[nH]c4ccccc4c3C[C@H](C(=O)N(C)C)N2C(=O)CCl)cc1 ; field requested: Whole Blood Stability % Remaining at 37° C. Mouse 100.0%

Query: Whole Blood Stability % Remaining at 37° C. Mouse; subject: COC(=O)[C@H]1Cc2c([nH]c3ccccc23)[C@H](c2ccc(OC(=O)C(C)(C)C)cc2)N1C(=O)CCl 100.0%

Consider the compound CN(C)C(=O)c1ccc([C@H]2c3[nH]c4ccccc4c3C[C@H](C(=O)N(C)C)N2C(=O)CCl)cc1 and give its measured Whole Blood Stability % Remaining at 37° C. Mouse. 100.0%

Reported Whole Blood Stability % Remaining at 37° C. Mouse for CN(C)C(=O)c1ccc([C@H]2c3sc4ccccc4c3C[C@H](C(=O)N(C)C)N2C(=O)CCl)cc1 : what is it? 100.0%
